Recorded values, source PubChem BioAssay AID2060613.

Recorded viability, T/C by entry
Test system: 233499-124-R-J3-PDC complex spheroid viability
Assay: Anticancer human tumor 233499-124-R-J3-PDC patient-derived colon adenocarcinoma cell line growth inhibition [CLK]
Details: second compound 1 µM; first compound 0.1 µM; hits give low values
Answer format: numeric, % implied, no suffix.

# annotated cases, reported viability, T/C shown
compound	result_number
Nc1ccn(C2OC(CO)C(O)C2(F)F)c(=O)n1 (stereo unspecified) + CN1CCN(c2cc(C(=O)Nc3cc4cc(-c5cnn(C)c5)ccc4cn3)ccn2)CC1	0.86
CCN1CCN(Cc2ccc(Nc3ncc(F)c(-c4cc(F)c5nc(C)n(C(C)C)c5c4)n3)nc2)CC1 + CNC(=O)c1ccc(Nc2nc(OC3CCCC3)c3c(-c4ccc5nc(C)oc5c4)c[nH]c3n2)c(OC)c1	85.3
CC1(C)CCC(CN2CCN(c3ccc(C(=O)NS(=O)(=O)c4ccc(NCC5CCOCC5)c([N+](=O)[O-])c4)c(Oc4cnc5[nH]ccc5c4)c3)CC2)=C(c2ccc(Cl)cc2)C1 + CN1CCN(c2cc(C(=O)Nc3cc4cc(-c5cnn(C)c5)ccc4cn3)ccn2)CC1	5.6
C#Cc1c(F)ccc2cc(O)cc(-c3ncc4c(N5CC6CCC(C5)N6)nc(OCC56CCCN5CC(F)C6)nc4c3F)c12 (stereo unspecified) + CN1CCN(c2cc(C(=O)Nc3cc4cc(-c5cnn(C)c5)ccc4cn3)ccn2)CC1	4.61

Entry under test: O=c1[nH]cc(F)c(=O)[nH]1 + CNC(=O)c1ccc(Nc2nc(OC3CCCC3)c3c(-c4ccc5nc(C)oc5c4)c[nH]c3n2)c(OC)c1 . Its viability, T/C was 68.7

Entry under test: CC(CO)NC(=O)c1cc(-c2ccc(Cl)cc2)nn(-c2cnn(C)c2)c1=O (stereo unspecified) + CNC(=O)c1ccc(Nc2nc(OC3CCCC3)c3c(-c4ccc5nc(C)oc5c4)c[nH]c3n2)c(OC)c1 . Its viability, T/C was 85

---

Recorded viability, T/C by entry
Tested on: 233499-124-R-J3-PDC complex spheroid viability
Assay: Anticancer human tumor 233499-124-R-J3-PDC cell line growth inhibition [CLK];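 also: spheroids exposed to the drug combinations for seven days; percent viability relative to DMSO vehicle control wells taken as 100%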
Conditions: second compound 0.316 µM; first compound 10 µM; hits give low values
From the text: A high-throughput screen of multi-cell type tumor spheroids was designed to identify active combinations of […] and targeted small molecules. Complex spheroids include a stromal component modeled by human endothelial cells (HUVEC) and fibroblasts modeled by human mesenchymal stem cells (MSCs). […] Compounds. […] If the clinical Cmax for an agent had not been determined, the highest concentration tested was 10 microM. […]
Answer format: numeric, % implied, no suffix.

# annotated cases, reported viability, T/C shown
compound	measured_quantity	result_number
C=C(F)C(=O)N1CCN(c2nc(OCC3CCCN3C)nc3c2CCN(c2cccc4cccc(Cl)c24)C3)CC1CC#N (stereo not given) + CN1CCN(c2cc(C(=O)Nc3cc4cc(-c5cnn(C)c5)ccc4cn3)ccn2)CC1	viability, T/C	48.6
O=c1[nH]cc(F)c(=O)[nH]1 + CN1CCN(c2cc(C(=O)Nc3cc4cc(-c5cnn(C)c5)ccc4cn3)ccn2)CC1	viability, T/C	19.7
CC(CO)NC(=O)c1cc(-c2ccc(Cl)cc2)nn(-c2cnn(C)c2)c1=O (stereo not given) + CNC(=O)c1ccc(Nc2nc(OC3CCCC3)c3c(-c4ccc5nc(C)oc5c4)c[nH]c3n2)c(OC)c1	viability, T/C	66.6
CC1(C)CCC(CN2CCN(c3ccc(C(=O)NS(=O)(=O)c4ccc(NCC5CCOCC5)c([N+](=O)[O-])c4)c(Oc4cnc5[nH]ccc5c4)c3)CC2)=C(c2ccc(Cl)cc2)C1 + CNC(=O)c1ccc(Nc2nc(OC3CCCC3)c3c(-c4ccc5nc(C)oc5c4)c[nH]c3n2)c(OC)c1	viability, T/C	25.1

Now look at this one.
Entry under test: CC(CO)NC(=O)c1cc(-c2ccc(Cl)cc2)nn(-c2cnn(C)c2)c1=O (stereo not given) + CN1CCN(c2cc(C(=O)Nc3cc4cc(-c5cnn(C)c5)ccc4cn3)ccn2)CC1 . Its viability, T/C was 68.9
